# key: entry, value: MIC
# Tested on: E. coli BW25113
# method: MIC determination (broth microdilution)
# Assay type: cell-based
# assay-setup: Escherichia coli, BW25113; read-out: MIC E. coli BW25113
attribute-measured: MIC

- molecule: "COc1c(NC(=O)c2ccc(NC(=O)c3ccc(NC(=O)[C@H](Cc4c[nH]nn4)NC(=O)c4ccc(NC(=O)c5ccc6ccccc6n5)cc4)cn3)c(OC)c2O)ccc(C(=O)O)c1O [compound 11]"
  test-target: "E. coli BW25113"
  reported-value: "≤ 0.016 µg/mL"
- molecule: "COc1c(NC(=O)c2ccc(NC(=O)c3ccc(NC(=O)[C@H](Cc4c[nH]nn4)NC(=O)c4ccc(NC(=O)c5ccc6ncsc6c5)cc4)cn3)c(OC)c2O)ccc(C(=O)O)c1O [compound 22]"
  test-target: "E. coli BW25113"
  reported-value: "≤ 0.016 µg/mL"
- molecule: "COc1c(NC(=O)c2ccc(NC(=O)c3ccc(NC(=O)[C@H](Cc4c[nH]nn4)NC(=O)c4ccc(NC(=O)c5ccc6nccnc6c5)cc4)cn3)c(OC)c2O)ccc(C(=O)O)c1O [compound 15]"
  test-target: "E. coli BW25113"
  reported-value: "0.031 µg/mL"
- molecule: "COc1c(NC(=O)c2ccc(NC(=O)c3ccc(NC(=O)[C@H](Cc4c[nH]nn4)NC(=O)c4ccc(NC(=O)c5cnc6ccccc6c5)cc4)cn3)c(OC)c2O)ccc(C(=O)O)c1O [compound 13]"
  test-target: "E. coli BW25113"
  reported-value: "≤ 0.016 µg/mL"
- molecule: "COc1ccc(C(=O)Nc2ccc(C(=O)N[C@@H](Cc3c[nH]nn3)C(=O)Nc3ccc(C(=O)Nc4ccc(C(=O)Nc5ccc(C(=O)O)c(O)c5OC)c(O)c4OC)nc3)cc2)nc1 [compound 6]"
  test-target: "E. coli BW25113"
  reported-value: "≤ 0.016 µg/mL"
- molecule: "COc1c(NC(=O)c2ccc(NC(=O)c3ccc(NC(=O)[C@H](Cc4c[nH]nn4)NC(=O)c4ccc(NC(=O)c5ccc(C#N)cc5)cc4)cn3)c(OC)c2O)ccc(C(=O)O)c1O [compound 4]"
  test-target: "E. coli BW25113"
  reported-value: "≤ 0.016 µg/mL"
- molecule: "COc1c(NC(=O)c2ccc(NC(=O)c3ccc(NC(=O)[C@H](Cc4c[nH]nn4)NC(=O)c4ccc(NC(=O)c5ccc6ncccc6c5)cc4)cn3)c(OC)c2O)ccc(C(=O)O)c1O [compound 14]"
  test-target: "E. coli BW25113"
  reported-value: "≤ 0.016 µg/mL"
- molecule: "COc1c(NC(=O)c2ccc(NC(=O)c3ccc(NC(=O)[C@H](Cc4c[nH]nn4)NC(=O)c4ccc(NC(=O)c5ccc6nn[nH]c6c5)cc4)cn3)c(OC)c2O)ccc(C(=O)O)c1O [compound 24]"
  test-target: "E. coli BW25113"
  reported-value: "0.125 µg/mL"
- molecule: "COc1c(NC(=O)c2ccc(NC(=O)c3ccc(NC(=O)[C@H](Cc4c[nH]nn4)NC(=O)c4ccc(NC(=O)c5cc(=O)c6cc(F)ccc6o5)cc4)cn3)c(OC)c2O)ccc(C(=O)O)c1O [compound 20]"
  test-target: "E. coli BW25113"
  reported-value: "≤ 0.016 µg/mL"
- molecule: "CCn1cc(C(=O)Nc2ccc(C(=O)N[C@@H](Cc3c[nH]nn3)C(=O)Nc3ccc(C(=O)Nc4ccc(C(=O)Nc5ccc(C(=O)O)c(O)c5OC)c(O)c4OC)nc3)cc2)c(=O)c2cc3c(cc21)OCO3 [compound 19]"
  test-target: "E. coli BW25113"
  reported-value: "≤ 0.016 µg/mL"
